# method.summary: Cytotoxicity against human H1299 cells after 72 hrs by Alamar blue assay
# Assay type: functional, cell-based
# cond: NCI-H1299, 72 h
pIC50: −log10 of the molar value.
Label label 1 when pIC50 is at or above 5; otherwise label label 0.

Confirm if pIC50 reported for the molecule OCc1c(CO)c(-c2ccc(Cl)cc2)n2c1Cc1ccccc1C2 is 5 or above.
label 0

Please tell me: is the molecule CCNC(=O)OCc1c(COC(=O)NCC)c(-c2ccc(Cl)cc2)n2c1Cc1ccccc1C2 at or over 5 in terms of pIC50?
label 0

Dear colleague, could you confirm whether CC(C)NC(=O)OCc1c(COC(=O)NC(C)C)c(-c2ccc(Cl)cc2)n2c1Cc1ccccc1C2 has pIC50 at or above 5?
label 0

Does pIC50 meet or surpass 5 for CCNC(=O)OCc1c(COC(=O)NCC)c2n(c1C)Cc1ccccc1C2 ?
label 0

Record CCNC(=O)OCc1c(COC(=O)NCC)c(-c2ccc(F)cc2)n2c1Cc1ccccc1C2 ; criterion: pIC50 no lower than 5. Met?
label 1

Check if pIC50 >= 5 (inclusive). Item: Cc1c(CO)c(CO)c2n1Cc1ccccc1C2
label 1

Check this molecule for pIC50 at or above 5: CCNC(=O)OCc1c(COC(=O)NCC)c(-c2ccc(OC)cc2)n2c1Cc1ccccc1C2
label 0
